Assign combination Emax to each entry below.
Tested on: YH-13 (Glioblastoma)
Experiment: combination Emax (second highest fraction inhibited in the dose matrix, 72 h); higher = more inhibition; extreme values may be limits of the assay
Write the number on its own, no unit after it.

Data request: Dear colleague, I am looking for the recorded combination Emax of the following compound: Cc1c2c(nn1C)CSCc1cc(n(C)n1)CSc1cc(c3ccccc3c1)OCCCc1c(C(=O)O)n(C)c3c-2c(Cl)ccc13 [AZD5991] + CCN(CCO)CCCOc1ccc2c(Nc3cc(CC(=O)Nc4cccc(F)c4)[nH]n3)ncnc2c1 [AZD2811] (first compound max 1 µM, 7x7, partner max 1 µM)
Data returned: 0.579

Data request: Also need CCN(CCO)CCCOc1ccc2c(Nc3cc(CC(=O)Nc4cccc(F)c4)[nH]n3)ncnc2c1 [AZD2811] + C=CCn1c(=O)c2cnc(Nc3ccc(N4CCN(C)CC4)cc3)nc2n1-c1cccc(C(C)(C)O)n1 [AZD1775] (first compound max 1 µM, partner max 1 µM) , thanks.
Data returned: 0.423

Data request: Also need Cc1c2c(nn1C)CSCc1cc(n(C)n1)CSc1cc(c3ccccc3c1)OCCCc1c(C(=O)O)n(C)c3c-2c(Cl)ccc13 [AZD5991] + Cn1cnc2c(F)c(Nc3ccc(Br)cc3Cl)c(C(=O)NOCCO)cc21 [Selumetinib] (first compound max 1 µM, 7x7, partner max 3 µM) , thanks.
Data returned: 0.178

Data request: Also need COc1cc2c(cc1OCCCCCOc1cc3c(cc1OC)C(=O)N1C=C(C)C[C@H]1C=N3)N=C[C@@H]1CC(C)=CN1C2=O [SG3199] + O=C(c1cc(Cc2n[nH]c(=O)c3ccccc23)ccc1F)N1CCN(C(=O)C2CC2)CC1 [Olaparib] (first compound max 0.001 µM, 7x7, partner max 10 µM) , thanks.
Data returned: 0.16

Data request: Also need Cc1c2c(nn1C)CSCc1cc(n(C)n1)CSc1cc(c3ccccc3c1)OCCCc1c(C(=O)O)n(C)c3c-2c(Cl)ccc13 [AZD5991] + C[C@@H]1COCCN1C2=NC(=NC(=C2)C3(CC3)[S@](=N)(=O)C)C4=C5C=CNC5=NC=C4 [AZD6738] (first compound max 1 µM, 7x7, partner max 10 µM) , thanks.
Data returned: 0.46

Data request: Also need C[C@@H](Oc1cc(-c2cnn(C3CCNCC3)c2)cnc1N)c1c(Cl)ccc(F)c1Cl [Crizotinib] + Cn1cnc2c(F)c(Nc3ccc(Br)cc3Cl)c(C(=O)NOCCO)cc21 [Selumetinib] (first compound max 10 µM, 7x7, partner max 10 µM) , thanks.
Data returned: 0.446

Data request: Also need Cc1c2c(nn1C)CSCc1cc(n(C)n1)CSc1cc(c3ccccc3c1)OCCCc1c(C(=O)O)n(C)c3c-2c(Cl)ccc13 [AZD5991] + CN(C)CCCOc1ccc(-c2ccc3ncc4c(c3c2)n(C2CCOCC2)c(=O)n4C)cn1 [AZD0156] (first compound max 1 µM, 7x7, partner max 1 µM) , thanks.
Data returned: 0.254
